Data origin, for the record: patent US20240358702A1

# system-under-test: KRAS G12D (Homo sapiens, UniProt P01116, G12D)
# Sequence (P01116 1-188 isoform P01116-2 G12D): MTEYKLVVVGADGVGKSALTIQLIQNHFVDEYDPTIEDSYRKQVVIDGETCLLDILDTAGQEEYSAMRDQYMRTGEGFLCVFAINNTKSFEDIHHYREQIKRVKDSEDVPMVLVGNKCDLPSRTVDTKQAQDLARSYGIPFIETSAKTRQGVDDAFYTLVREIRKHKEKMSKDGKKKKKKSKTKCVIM
# assay-remarks: GDP-GTP exchange assay (bodipy-GDP/GppNHp, SOS1), KRAS G12D
# reported-conditions: KRAS_G12D exchange assay IC50; 4 h pre-incubation; value for the most potent isomer quoted; read-out: G12D_exchange
# Method: The inhibitor potency of the exemplified compounds was determined in a fluorescence based guanine nucleotide exchange assay, which measures the exchange of bodipy-GDP (fluorescently labeled GDP) for GppNHp (Non-hydrolyzable GTP analog) to generate the active state of KRAS in the presence of SOS1 (guanine nucleotide exchange factor). […] Fluorescence intensities were measured on a PheraStar plate reader instrument (BMG Labtech) with excitation at 485 nm and emission at 520 nm. […]
pIC50: −log10 of the molar value.

compound	pIC50
Cc1nc2c(F)c(-c3cccc(Cl)c3Cl)c(CCC#N)cc2c2c1cc([C@@H](C)N1CCCN(c3ccn(C)c(=O)c3)C1=O)n2[C@H]1[C@H]2CN[C@@H]1C2 [Example 36]	6.00 to 7.00
